B1: NET1 (parent)
chain: RVRPLARVTSLANLISPVRNGAVR

Variants of: B1
protocol.description: protein stability index of a GFP-peptide fusion (GPS, HEK-293T) (PSI 1-6); higher = more stable;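 note: lentivirally expressed fusions sorted by FACS into six bins by GFP to DsRed ratio, PSI derived from sequencing read proportions per bin multiplied by bin number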
condition.description: c terminus: a fixed tail appended
result.type: protein stability index

>>> measured("P17S")
3.45
>>> measured("L14M")
2.61
>>> measured("L11S")
3.14
>>> measured("P17V")
3.16
>>> measured("R19L")
2.81
>>> measured("V18F")
2.29
>>> measured("V2I")
2.25
>>> measured("I15S")
3.63
>>> measured("V2R")
2.92
>>> measured("V8Y")
2.38
>>> measured("A6T")
2.9
>>> measured("L5G")
2.5
>>> measured("R19N")
3.28
>>> measured("V23L")
2.66
>>> measured("V2L")
2.29
>>> measured("V2C")
2.64
>>> measured("S10K")
2.41
>>> measured("I15N")
3.97
>>> measured("P4A")
2.06
>>> measured("R24Y")
1.88
>>> measured("R19K")
2.59
>>> measured("R7N")
3.31
>>> measured("V23G")
3.79
>>> measured("N20W")
2.33
>>> measured("A22E")
3.52
>>> measured("P17R")
2.24
>>> measured("T9F")
2.85
>>> measured("S16M")
2.31
>>> measured("L14S")
3.15
>>> measured("P4S")
2.85
>>> measured("P4M")
1.43
>>> measured("L5M")
2.55
>>> measured("V23I")
2.7
>>> measured("N13V")
2.33
>>> measured("R7I")
2.43
>>> measured("A22V")
2.75
>>> measured("P4W")
2.71
>>> measured("P17I")
2.24
>>> measured("R7F")
1.85
>>> measured("I15P")
3.31
>>> measured("L14N")
3.84
>>> measured("A6E")
3.06
>>> measured("S16F")
2.21
>>> measured("R19C")
2.99
>>> measured("G21P")
3.52
>>> measured("R19F")
2.29
>>> measured("A22W")
1.86
>>> measured("R3D")
3.03
>>> measured("P17D")
3.03
>>> measured("A22Y")
2.54
>>> measured("I15F")
2.76
>>> measured("R24Q")
3.37
>>> measured("R24G")
2.93
>>> measured("A6I")
2.76
>>> measured("I15D")
3.65
>>> measured("R1D")
3.73
>>> measured("T9C")
3.08
>>> measured("A22G")
3.18
>>> measured("R24P")
2.93
>>> measured("A6K")
2.74
>>> measured("S10C")
1.62
>>> measured("S10E")
3
>>> measured("A6V")
3.36
>>> measured("A22R")
3.36
>>> measured("N13G")
3.05
>>> measured("L5P")
3.3
>>> measured("V8K")
2.6
>>> measured("P17Y")
2.07
>>> measured("A22T")
3.46
>>> measured("T9Y")
3.12
>>> measured("P4R")
1.97
>>> measured("S10M")
1.78
>>> measured("G21S")
3.56
>>> measured("G21E")
3.08
>>> measured("R1W")
2.36
>>> measured("N20L")
3.29
>>> measured("R19M")
2.53
>>> measured("L5H")
3.14
>>> measured("V2F")
1.97
>>> measured("T9M")
2.66
>>> measured("P4T")
2.31
>>> measured("V23Q")
3.73
>>> measured("V23W")
2.4
>>> measured("V18W")
2.25
>>> measured("S16G")
3.14
>>> measured("A12C")
2.66
>>> measured("L11M")
3.45
>>> measured("A12P")
4.28
>>> measured("V2Q")
3.59
>>> measured("A6C")
2.98
>>> measured("N20A")
2.91
